// reported inhibition for each item listed
target: Glucose transporter (Leishmania mexicana) (UniProt O61059); test: ST_JUDE_LEISH: Cytotoxicity at 2uM final concentration against transgenic Leishmania Mexicana promastigotes LmGT2 that are glucose transport deficient and complemented with the L. Mexicana glucose transporter 2. Activity is measured by DNA content using SYBR green in vitro; assay type: functional
readout: inhibition (%)

>>> value_observed("Cc1ccccc1C1CCN(C2CCC(NC(=O)/C=C/c3cccc(Cl)c3)CC2)CC1 (centres undefined)")
-3.2
>>> value_observed("Cc1cc(F)ccc1N(c1nc(-c2cc(Cl)ccc2Cl)cs1)C1CCNC1 (centres undefined)")
4.16
>>> value_observed("Cc1nc(-c2ccc(-c3ccc(NC(=O)c4coc5ccc(N6CC(C)NC(C)C6)cc45)cc3)c(C)c2)no1 (centres undefined)")
6.24
>>> value_observed("COc1ccc(CNCc2cccc(-c3csc(-c4nc5ccccc5[nH]4)c3)c2)cc1")
2.49
>>> value_observed("O=C(N[C@H]1CCN(Cc2ccc(OC3CCN(Cc4ccccc4)CC3)c(Br)c2)C1)c1ccc(Cl)c(Cl)c1")
0.77
>>> value_observed("O=C(c1ccccc1)N1CCC[C@](CCCN2CCN(c3ccccc3O)CC2)(c2ccc(Cl)c(Cl)c2)C1")
5.99
>>> value_observed("CCOC(=O)C1CCN(CCCNC(=O)/C(=C/C=C/c2cc3cc(Cl)c(Cl)cc3[nH]2)OC)CC1")
0.42
>>> value_observed("COc1ccc2nc3cc(Cl)ccc3c(Nc3ccc(Sc4ccc(Nc5c6ccc(Cl)cc6nc6ccc(OC)cc56)cc4)cc3)c2c1")
3.6
>>> value_observed("COCC(=O)N(Cc1ccccc1-c1cccc(CNCc2ccc3c(c2)OCO3)c1)C1CCN(Cc2ccccc2)CC1")
1.77

* * *

target: Hexose transporter 1 (Plasmodium falciparum); assay: ST_JUDE_LEISH: Cytotoxicity at 2uM final concentration against transgenic Leishmania Mexicana promastigotes LmPfHT that are glucose transport deficient and complemented with the Plasmodium falciparum hexose transporter. Activity is measured by DNA content using SYBR green in vitro; assay type: functional
Entries and their measured inhibition follow.
readout: inhibition (%)

>>> value_observed("COc1ccc(NC(=O)NC2CCN(c3ccnc4ccccc34)C2)cc1 (stereo not given)")
0.7
>>> value_observed("COc1ccccc1C1CC(c2ccc(Br)cc2)=NN1C(=O)c1ccccc1 (stereo not given)")
2.02
>>> value_observed("Clc1ccccc1OCc1ccccn1")
2.07
>>> value_observed("COc1cc(F)c2nccc([C@@H](O)CN3CCC(NCc4nc5cccc(F)c5[nH]4)CC3)c2c1")
0.25
>>> value_observed("C=CCn1c(Sc2ccc(C#N)c([N+](=O)[O-])c2)nnc1-c1cccc(Cl)c1")
-0.51
>>> value_observed("c1ccc2c(NCCCCCCCCNc3ccnc4ccccc34)ccnc2c1")
0.85
>>> value_observed("CC(C)C[C@@H](/C=N/N1CC(=O)NC1=O)NC(=O)[C@H](CC(C)C)NC(=O)c1ccc(OCCN2CCOCC2)cc1")
2.99
>>> value_observed("COC(=O)c1ccc(OCC(O)CO)cc1O (stereo not given)")
2.14
>>> value_observed("CCn1cc2c3c(cc(C(=O)N[C@@H](Cc4ccccc4)[C@H](O)CNCc4cccc(OC)c4)cc31)N(C)S(=O)(=O)CC2")
3.02
>>> value_observed("CC(C)(C)c1ccc(CNCCOc2ccc(Nc3nnc(-c4ccc(-c5ncc[nH]5)cc4)o3)c3ccccc23)cc1")
2.75
>>> value_observed("CCOc1ccc2c(=NN=Cc3ccc(F)cc3)cc(C)[nH]c2c1")
3.21
>>> value_observed("O=C(Nc1ccc(OC2CCN(CC3CC3)CC2)c(Cl)c1)c1ccc2ncccc2c1")
9.49
>>> value_observed("CCOc1cc(C(=O)NC2CC(C)(C)NC(C)(C)C2)ccc1-c1cc2cc(Cl)c(Cl)cc2[nH]1")
-1.26
>>> value_observed("N#Cc1ccc2c(c1)CCN(CCC1CCC(NC(=O)Nc3cnc4ccccc4c3)CC1)C2 (stereo not given)")
3.15
>>> value_observed("CCCOC(=O)c1ccc(OCCCON2C(=N)N=C(N)NC2(C)C)cc1")
-0.38
>>> value_observed("Cc1cc(OCC2CCCO2)c2cc(NC(=O)C(=O)Nc3ccc4nc(C)cc(OCC5CCCO5)c4c3)ccc2n1 (stereo not given)")
3.62
>>> value_observed("c1cc(C2=NC3CCCCC3N2)ccc1OCCCOc1ccc(C2=NC3CCCCC3N2)cc1 (stereo not given)")
6.74
>>> value_observed("Cc1ccc(NC(=O)c2cccc(C#N)c2)cc1-c1ccc(C(=O)Nc2ccncc2)cc1")
9.75
>>> value_observed("CC(C)(C)c1ccc(NC(=O)c2cccc(CN3CCCN(Cc4cccc(Cl)c4)CC3)c2)cc1")
4.37
>>> value_observed("OCCc1ccc(Nc2nccc(-c3nnc4ccccn34)n2)cc1")
6.22

* * *

target: Hexose transporter 1 (Plasmodium falciparum); assay: ST_JUDE_LEISH: Cytotoxicity at 2uM final concentration against transgenic Leishmania Mexicana promastigotes LmPfHT that are glucose transport deficient and complemented with the Plasmodium falciparum hexose transporter. Activity is measured by DNA content using SYBR green in vitro; assay type: functional
readout: inhibition (%)

>>> value_observed("CCC1CN(S(=O)(=O)c2ccc3c(c2)NC(=O)CC(=O)N3)c2cc(Cl)ccc2O1 (centres undefined)")
2.92
>>> value_observed("COc1ccc(CNC(=O)NC2CCN(c3ccnc(Nc4cc(OC)c(OC)c(OC)c4)n3)C2)cc1 (centres undefined)")
5.45
>>> value_observed("O=[N+]([O-])c1cccc(NC(=S)N2CCCN(Cc3ccc(F)cc3F)CC2)c1")
1
>>> value_observed("CC(C)N(Cc1ccc(-c2ccc(C(F)(F)F)cc2)cc1)C(=O)Cn1c(SCc2cccc(F)c2F)cc(=O)c2cc(CN3CCCCC3)ccc21")
1.78

* * *

molecular target: Solute carrier family 2, facilitated glucose transporter member 1 (Homo sapiens) (UniProt P11166); experiment: ST_JUDE_LEISH: Cytotoxicity at 2uM final concentration against transgenic Leishmania Mexicana promastigotes LmGLUT1 that are glucose transport deficient and complemented with the human glucose transporter GLUT1. Activity is measured by DNA content using SYBR green in vitro; format: functional
Sequence (P11166 whole entry): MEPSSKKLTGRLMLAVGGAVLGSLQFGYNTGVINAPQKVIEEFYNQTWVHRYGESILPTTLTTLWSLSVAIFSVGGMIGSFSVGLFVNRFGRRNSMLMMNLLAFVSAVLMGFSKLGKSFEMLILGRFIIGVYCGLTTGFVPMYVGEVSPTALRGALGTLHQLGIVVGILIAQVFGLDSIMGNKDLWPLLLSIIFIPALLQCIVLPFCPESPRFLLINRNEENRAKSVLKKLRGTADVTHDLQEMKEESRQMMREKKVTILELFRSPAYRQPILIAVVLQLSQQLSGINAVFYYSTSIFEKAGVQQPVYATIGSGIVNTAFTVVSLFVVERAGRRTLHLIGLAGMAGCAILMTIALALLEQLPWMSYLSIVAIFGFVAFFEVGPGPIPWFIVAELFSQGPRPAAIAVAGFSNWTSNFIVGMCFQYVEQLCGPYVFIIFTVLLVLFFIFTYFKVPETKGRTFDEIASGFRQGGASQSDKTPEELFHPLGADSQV
Examples of molecules with documented inhibition follow.
readout: inhibition

>>> value_observed("FC(F)(F)c1ccc2[nH]ccc(=NN=Cc3cccc(Cl)c3)c2c1")
"1.05%"
>>> value_observed("O=C(Nc1ccc(-c2nc3ccccc3[nH]2)cc1)c1cccc(S(=O)(=O)N2CCOCC2)c1")
"4.9%"
>>> value_observed("CS(=O)(=O)Cc1ccc(Nc2nccc(-c3c(-c4cccc(NC(=O)c5c(F)cccc5F)c4)nn4ccccc34)n2)cc1")
"38.6%"
>>> value_observed("N=C(N)NC(=O)Nc1cc(Cl)c(Cl)c(C(F)(F)F)c1")
"2.87%"
>>> value_observed("O=C1c2ccccc2C(=O)N1CCOc1c(Br)cc(Br)cc1CNCCCNc1cc(=O)c2ccccc2[nH]1")
"2.28%"
>>> value_observed("O=C(Nc1ccc(Cl)c(Cl)c1)Nc1ccc2nccc(N3CCNCC3)c2c1")
"-0.16%"
>>> value_observed("CCCN(Cc1ccc(OCC)cc1)Cc1cc(=O)c2cc(Cl)ccc2[nH]1")
"8.02%"
>>> value_observed("CN(C)CCCn1c(N)c(-c2nc3ccccc3[nH]2)c2nc(C#N)c(C#N)nc21")
"-1.02%"
>>> value_observed("CC(=O)Nc1ccc(OCCN(CC(C)C)c2ccc(C(F)(F)F)c(C#N)c2)c(Cl)c1")
"6.51%"

* * *

target: Hexose transporter 1 (Plasmodium falciparum) (UniProt O97467); experiment: ST_JUDE_LEISH: Cytotoxicity at 2uM final concentration against transgenic Leishmania Mexicana promastigotes LmPfHT that are glucose transport deficient and complemented with the Plasmodium falciparum hexose transporter. Activity is measured by DNA content using SYBR green in vitro; format: functional
Recorded inhibition by entry
readout: inhibition (%)

>>> value_observed("O=C(Nc1ccc([N+](=O)[O-])cc1Cl)c1cc2ccccc2cc1O")
1.59
>>> value_observed("N#Cc1ccc(N(CCOC(=O)c2ccccc2)Cc2ccccc2C(F)(F)F)cc1C(F)(F)F")
1.18
>>> value_observed("COc1c(C2CCN(CCCCNC(=O)c3ccc(-c4ccc(Cl)cc4)c(O)c3)CC2)ccc2c1CCCC2")
2.6
>>> value_observed("CC(=O)Nc1ccc(C2NC(=O)NC(c3ccccc3)=C2c2nc3ccccc3s2)cc1 (centres undefined)")
0.83
>>> value_observed("CCCCCCNC(=O)C1Cc2c([nH]c3ccc(Br)cc23)C2(CCN(CCc3ccccc3)CC2)N1 (centres undefined)")
10.8
>>> value_observed("COc1cc(NCC(O)CNc2cc(Cl)nc3ccccc23)nc2ccccc12 (centres undefined)")
8.28
>>> value_observed("CCNC(=O)N1CCc2ccc(Oc3nc(NCc4ccccc4OC)ncc3C)cc2CC1")
6.01
>>> value_observed("CCC(C)OC(=O)C1=C(C)NC2=C(C(=O)CC(c3ccc(OC)c(OC)c3)C2)C1c1cccc(O)c1 (centres undefined)")
0.16
>>> value_observed("CCOc1ccc(OCC)c(N2CCN(CCCCNC(=O)c3ccc(NC(=O)c4ccc(Cl)cc4)cc3)CC2)c1")
3.28
>>> value_observed("Cn1cncc1C(=O)Nc1cccc(-c2cccc(-c3nc4cc(F)ccc4[nH]3)c2)c1")
3.24
>>> value_observed("COc1ccc(NC(=O)/C=C/c2ccc(-c3ccccc3)cc2)cc1N1CCN(C)CC1")
3.25
>>> value_observed("Cc1noc(=O)c2ccc(NC(=O)C(O)(CSc3ccccc3)CC(C)C)cc12 (centres undefined)")
4.78
>>> value_observed("CCNC(=O)N1CCN(c2nc(-c3ccccc3)nc(COC)c2Cc2ccc(C)cc2)CC1")
-1.41
>>> value_observed("CC1(C)N=C(N)N=C(N)C1c1ccc(Cl)c(Cl)c1 (centres undefined)")
2.94
>>> value_observed("Cc1cccc(CN2CCCN(Cc3cccc(C(=O)Nc4ccc(C(C)(C)C)cc4)c3)CC2)c1")
2.22
>>> value_observed("CCCCN1CCN(c2cc(NS(=O)(=O)c3ccc(C(=O)Nc4ccc(C(F)(F)F)cc4)cc3)ccc2OC)CC1")
5.5
>>> value_observed("CCN(CCCN1CCCCC1)c1cc(C)nc(Nc2cc(C(F)(F)F)ccc2C)n1")
0.37
>>> value_observed("CCOc1ccc(Nc2ccc3nonc3c2S(=O)(=O)Nc2ccc(OCC)cc2)cc1")
-0.32
>>> value_observed("CC(C)(C)N1CCC(N(Cc2ccc(-c3ccc(C(F)(F)F)cc3)cc2)C(=O)Cn2c(CCc3cccc(F)c3F)cc(=O)c3cccnc32)CC1")
-1.34
